organism: Rattus norvegicus; experiment: Ability to inhibit the release of histamine in the rat peritoneal fluids by 50%; assay type: functional, organism-based
property: IC50 (nM)

Query (molecule): CCCc1c(OCC(O)CN2CCN(Cc3ccc(Cl)cc3)CC2)ccc2c(O)c([N+](=O)[O-])c(=O)oc12 (centres undefined) ; field requested: IC50 2600

Bench note: what IC50 did O=c1oc2cc(OCCCN3CCN(Cc4ccccc4)CC3)ccc2c(O)c1[N+](=O)[O-] show? 28000

Which IC50 value is on record for O=c1oc2cc(CN3CCN(Cc4ccc(Cl)cc4)CC3)ccc2c(O)c1[N+](=O)[O-] ? 14000

(P) O=c1oc2cc(OCCCN3CCN(Cc4ccc(Cl)cc4)CC3)ccc2c(O)c1[N+](=O)[O-]
(Q) O=C(O)c1cc(=O)c2c(OCC(O)COc3cccc4oc(C(=O)O)cc(=O)c34)cccc2o1 [CROMOLYN SODIUM]
Lab notebook, comparison: P versus Q , higher IC50 goes to which? Reply with the label of the item you choose. P

----------
Property: IC50; scope: individual molecules
species on record: Rattus norvegicus; experiment: Ability to inhibit the release of histamine in the rat peritoneal fluids by 50%; format: functional, organism-based

Reported IC50 for CN1CCN(CCCOc2ccc3c(O)c([N+](=O)[O-])c(=O)oc3c2)CC1 : what is it? < 2 µM

What value of IC50 has been recorded for this entry: CN1CCC(=C2c3ccccc3CC(=O)c3sccc32)CC1 > 200 µM

Given COc1ccc(CN(CCN(C)C)c2ccccn2)cc1 , state its recorded IC50. > 200 µM

Others:
Looking for the measured IC50 of O=c1oc2cc(OCC(O)CN3CCN(Cc4ccc(Cl)cc4)CC3)ccc2c(O)c1[N+](=O)[O-] (centres undefined) , can you help? < 2 µM
